All figures here come from patent US8653041B2.

system: Pseudomonas aeruginosa; experiment: MIC, CLSI broth microdilution, Pseudomonas aeruginosa panel; format: cell-based; details: Pseudomonas aeruginosa, P. aeruginosa clinical strain 20 (resistant clinical isolate); read-out: MIC
Readout: MIC

Query: Please tell me: MIC of NCC[C@H](O)C(=O)N[C@@H]1C[C@H](N)[C@@H](O[C@H]2O[C@H](CN)[C@@H](O)[C@H](O)[C@H]2O)[C@H](O)[C@H]1O[C@H]1O[C@H](CO)[C@@H](O)[C@H](N)[C@H]1O , system Pseudomonas aeruginosa?
Reply: ≥ 32 µg/mL

Query: Please tell me: MIC of NCC[C@H](O)C(=O)N[C@@H]1C[C@H](N)[C@@H](O[C@H]2O[C@H](CNCCO)[C@@H](O)C[C@H]2N)[C@H](O[C@@H]2O[C@H](CO)[C@@H](O[C@H]3O[C@@H](CN)[C@@H](O)[C@H](O)[C@H]3N)[C@H]2O)[C@H]1O , system Pseudomonas aeruginosa?
Reply: 16 to 32 µg/mL

Query: Please tell me: MIC of NC[C@H]1O[C@H](O[C@H]2[C@H](O)[C@@H](O[C@H]3O[C@H](CO)[C@@H](O)[C@H](N)[C@H]3O)[C@H](N)C[C@@H]2N)[C@H](N)C[C@@H]1O , system Pseudomonas aeruginosa?
Reply: 1 to 8 µg/mL

Query: Please tell me: MIC of NC[C@@H]1O[C@H](O[C@H]2[C@@H](O)[C@H](O[C@@H]3[C@@H](O)[C@H](NC(=O)[C@@H](O)CN)C[C@H](N)[C@H]3O[C@H]3O[C@H](CNCCO)[C@@H](O)C[C@H]3N)O[C@@H]2CO)[C@H](N)[C@@H](O)[C@@H]1O , system Pseudomonas aeruginosa?
Reply: 16 to 32 µg/mL

====

tested on: Acinetobacter baumannii; assay: MIC, CLSI broth microdilution, Acinetobacter baumannii panel; format: cell-based; conditions: Acinetobacter baumannii, A. baumannii clinical strain 18 (resistant clinical isolate); read-out: MIC
Readout: MIC

Query: Find the recorded MIC belonging to NC[C@H]1O[C@H](O[C@H]2[C@H](O)[C@@H](O[C@H]3O[C@H](CO)[C@@H](O)[C@H](N)[C@H]3O)[C@H](N)C[C@@H]2N)[C@H](N)C[C@@H]1O [TOB, tobramycin] and report it.
Reply: 1 to 8 µg/mL

Query: Find the recorded MIC belonging to NC[C@@H]1O[C@H](O[C@H]2[C@@H](O)[C@H](O[C@@H]3[C@@H](O)[C@H](NC(=O)[C@@H](O)CN)C[C@H](N)[C@H]3O[C@H]3O[C@H](CNCCO)[C@@H](O)C[C@H]3N)O[C@@H]2CO)[C@H](N)[C@@H](O)[C@@H]1O [Compound 20] and report it.
Reply: 1 to 8 µg/mL

Query: Find the recorded MIC belonging to NCC[C@H](O)C(=O)N[C@@H]1C[C@H](N)[C@@H](O[C@H]2O[C@H](CN)[C@@H](O)[C@H](O)[C@H]2O)[C@H](O)[C@H]1O[C@H]1O[C@H](CO)[C@@H](O)[C@H](N)[C@H]1O [AMK, amikacin] and report it.
Reply: ≥ 32 µg/mL

Query: Find the recorded MIC belonging to NCC[C@H](O)C(=O)N[C@@H]1C[C@H](N)[C@@H](O[C@H]2O[C@H](CNCCO)[C@@H](O)C[C@H]2N)[C@H](O[C@@H]2O[C@H](CO)[C@@H](O[C@H]3O[C@@H](CN)[C@@H](O)[C@H](O)[C@H]3N)[C@H]2O)[C@H]1O [Compound 18] and report it.
Reply: 8 to 16 µg/mL

====

Would you mind telling me the reported MIC of each entry?
test system: Pseudomonas aeruginosa; test: MIC, CLSI broth microdilution, Pseudomonas aeruginosa panel; type: cell-based; settings: Pseudomonas aeruginosa, P. aeruginosa clinical strain 6 (resistant clinical isolate); read-out: MIC

Query: Find the recorded MIC belonging to NCC[C@H](O)C(=O)N[C@@H]1C[C@H](N)[C@@H](O[C@H]2O[C@H](CNCCO)[C@@H](O)C[C@H]2N)[C@H](O[C@@H]2O[C@H](CO)[C@@H](O[C@H]3O[C@@H](CN)[C@@H](O)[C@H](O)[C@H]3N)[C@H]2O)[C@H]1O and report it.
Reply: 1 to 8 µg/mL

Query: Find the recorded MIC belonging to NCC[C@H](O)C(=O)N[C@@H]1C[C@H](N)[C@@H](O[C@H]2O[C@H](CN)[C@@H](O)[C@H](O)[C@H]2O)[C@H](O)[C@H]1O[C@H]1O[C@H](CO)[C@@H](O)[C@H](N)[C@H]1O and report it.
Reply: 8 to 16 µg/mL

Query: Find the recorded MIC belonging to NC[C@@H]1O[C@H](O[C@H]2[C@@H](O)[C@H](O[C@@H]3[C@@H](O)[C@H](NC(=O)[C@@H](O)CN)C[C@H](N)[C@H]3O[C@H]3O[C@H](CNCCO)[C@@H](O)C[C@H]3N)O[C@@H]2CO)[C@H](N)[C@@H](O)[C@@H]1O and report it.
Reply: 1 to 8 µg/mL

Query: Find the recorded MIC belonging to NC[C@H]1O[C@H](O[C@H]2[C@H](O)[C@@H](O[C@H]3O[C@H](CO)[C@@H](O)[C@H](N)[C@H]3O)[C@H](N)C[C@@H]2N)[C@H](N)C[C@@H]1O and report it.
Reply: ≥ 32 µg/mL

====

test system: Acinetobacter baumannii; test: MIC, CLSI broth microdilution, Acinetobacter baumannii panel; type: cell-based; settings: Acinetobacter baumannii, A. baumannii clinical strain 4 (resistant clinical isolate); read-out: MIC
Readout: MIC

Query: Find the recorded MIC belonging to NCC[C@H](O)C(=O)N[C@@H]1C[C@H](N)[C@@H](O[C@H]2O[C@H](CN)[C@@H](O)[C@H](O)[C@H]2O)[C@H](O)[C@H]1O[C@H]1O[C@H](CO)[C@@H](O)[C@H](N)[C@H]1O and report it.
Reply: 16 to 32 µg/mL

Query: Find the recorded MIC belonging to NCC[C@H](O)C(=O)N[C@@H]1C[C@H](N)[C@@H](O[C@H]2O[C@H](CNCCO)[C@@H](O)C[C@H]2N)[C@H](O[C@@H]2O[C@H](CO)[C@@H](O[C@H]3O[C@@H](CN)[C@@H](O)[C@H](O)[C@H]3N)[C@H]2O)[C@H]1O and report it.
Reply: 16 to 32 µg/mL

Query: Find the recorded MIC belonging to NC[C@@H]1O[C@H](O[C@H]2[C@@H](O)[C@H](O[C@@H]3[C@@H](O)[C@H](NC(=O)[C@@H](O)CN)C[C@H](N)[C@H]3O[C@H]3O[C@H](CNCCO)[C@@H](O)C[C@H]3N)O[C@@H]2CO)[C@H](N)[C@@H](O)[C@@H]1O and report it.
Reply: 16 to 32 µg/mL

Query: Find the recorded MIC belonging to NC[C@H]1O[C@H](O[C@H]2[C@H](O)[C@@H](O[C@H]3O[C@H](CO)[C@@H](O)[C@H](N)[C@H]3O)[C@H](N)C[C@@H]2N)[C@H](N)C[C@@H]1O and report it.
Reply: ≥ 32 µg/mL

====

test system: Acinetobacter baumannii; experiment: MIC, CLSI broth microdilution, Acinetobacter baumannii panel; type: cell-based; conditions: Acinetobacter baumannii, A. baumannii clinical strain 23 (resistant clinical isolate); read-out: MIC
Readout: MIC

Query: Find the recorded MIC belonging to NC[C@@H]1O[C@H](O[C@H]2[C@@H](O)[C@H](O[C@@H]3[C@@H](O)[C@H](NC(=O)[C@@H](O)CN)C[C@H](N)[C@H]3O[C@H]3O[C@H](CNCCO)[C@@H](O)C[C@H]3N)O[C@@H]2CO)[C@H](N)[C@@H](O)[C@@H]1O [Compound 20] and report it.
Reply: ≤ 1 µg/mL

Query: Find the recorded MIC belonging to NCC[C@H](O)C(=O)N[C@@H]1C[C@H](N)[C@@H](O[C@H]2O[C@H](CN)[C@@H](O)[C@H](O)[C@H]2O)[C@H](O)[C@H]1O[C@H]1O[C@H](CO)[C@@H](O)[C@H](N)[C@H]1O [AMK, amikacin] and report it.
Reply: ≥ 32 µg/mL

Query: Find the recorded MIC belonging to NC[C@H]1O[C@H](O[C@H]2[C@H](O)[C@@H](O[C@H]3O[C@H](CO)[C@@H](O)[C@H](N)[C@H]3O)[C@H](N)C[C@@H]2N)[C@H](N)C[C@@H]1O [TOB, tobramycin] and report it.
Reply: ≥ 32 µg/mL

Query: Find the recorded MIC belonging to NCC[C@H](O)C(=O)N[C@@H]1C[C@H](N)[C@@H](O[C@H]2O[C@H](CNCCO)[C@@H](O)C[C@H]2N)[C@H](O[C@@H]2O[C@H](CO)[C@@H](O[C@H]3O[C@@H](CN)[C@@H](O)[C@H](O)[C@H]3N)[C@H]2O)[C@H]1O [Compound 18] and report it.
Reply: ≤ 1 µg/mL
